Procedure summary: Oral bioavailability in Beagle dog at 0.5 mg/kg via gavage measured over 48 hrs
Type: ADME, organism-based, Canis lupus familiaris
Experimental setup: in vivo
Value type: bioavailability (%)
Answers are plain numbers, in %.

Data request: bioavailability lookup needed for "Cc1n[nH]c2ncc(C(=O)N3CCC[C@H]3c3ccc(Cl)cc3)cc12" , thanks.
Data returned: 39

---

Procedure summary: Kinetic solubility of the compound
Format: physicochemical
Experimental setup: read-out: Kinetic_solubility
Value type: solubility kinetic

Data request: solubility kinetic lookup needed for "Cc1n[nH]c2ncc(C(=O)N3CCC[C@H]3c3ccc(Cl)cc3)cc12" , thanks.
Data returned: > 200 µM

---

Study target: UniProt:O60674
Sequence (O60674 whole entry): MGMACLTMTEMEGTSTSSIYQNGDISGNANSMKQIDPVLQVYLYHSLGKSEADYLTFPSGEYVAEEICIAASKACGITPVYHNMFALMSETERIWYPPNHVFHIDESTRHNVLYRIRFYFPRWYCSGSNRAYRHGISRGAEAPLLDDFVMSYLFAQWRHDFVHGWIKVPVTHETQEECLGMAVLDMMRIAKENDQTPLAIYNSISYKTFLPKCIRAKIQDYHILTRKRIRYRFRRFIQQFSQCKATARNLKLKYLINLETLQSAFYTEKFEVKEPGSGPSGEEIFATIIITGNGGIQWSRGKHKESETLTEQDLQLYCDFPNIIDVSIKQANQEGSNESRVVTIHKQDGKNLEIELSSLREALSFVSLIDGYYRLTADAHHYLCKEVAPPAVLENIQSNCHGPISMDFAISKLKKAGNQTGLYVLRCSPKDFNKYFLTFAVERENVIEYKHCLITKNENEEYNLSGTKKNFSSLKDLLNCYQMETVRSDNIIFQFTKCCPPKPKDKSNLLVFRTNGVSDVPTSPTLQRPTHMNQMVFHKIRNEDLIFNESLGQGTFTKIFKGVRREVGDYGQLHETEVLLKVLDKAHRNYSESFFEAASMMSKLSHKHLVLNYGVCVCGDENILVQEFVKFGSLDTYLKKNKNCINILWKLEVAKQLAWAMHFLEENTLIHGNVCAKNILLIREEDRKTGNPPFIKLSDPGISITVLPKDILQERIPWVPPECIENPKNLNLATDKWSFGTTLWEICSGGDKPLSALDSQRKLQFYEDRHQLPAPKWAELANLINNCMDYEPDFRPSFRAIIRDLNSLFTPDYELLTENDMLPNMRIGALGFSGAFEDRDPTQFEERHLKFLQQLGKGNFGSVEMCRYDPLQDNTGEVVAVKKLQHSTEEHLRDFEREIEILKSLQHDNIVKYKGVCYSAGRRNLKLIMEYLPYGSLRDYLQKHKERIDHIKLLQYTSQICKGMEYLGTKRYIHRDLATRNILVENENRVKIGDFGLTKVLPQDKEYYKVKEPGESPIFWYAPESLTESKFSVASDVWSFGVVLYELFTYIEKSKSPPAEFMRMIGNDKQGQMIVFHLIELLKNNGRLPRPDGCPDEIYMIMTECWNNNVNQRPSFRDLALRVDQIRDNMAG
Procedure summary: Inhibition of JAK2 (unknown origin) at 1 uM relative to control
Lab note: compare inhibition against 60%. Equal or greater, write yes (1). Smaller, write no (0).

As a guide, the following entries are already answered.
{"Structure notation": "CNc1n[nH]c2ccc(C(=O)N3CCC[C@H]3c3ccc(Cl)cc3)cc12", "Study target": "UniProt:O60674", "Class name": "no (0)"}
{"Structure notation": "Nc1n[nH]c2ccc(C(=O)N3CCCC[C@H]3c3ccc(F)cc3)cc12", "Study target": "UniProt:O60674", "Class name": "no (0)"}
{"Structure notation": "Nc1n[nH]c2ccc(C(=O)N3CCC[C@H]3c3ccc(Br)cc3)cc12", "Study target": "UniProt:O60674", "Class name": "yes (1)"}
{"Structure notation": "Nc1n[nH]c2ccc(C(=O)N3CCC[C@H]3c3ccc(Cl)cc3)cc12", "Study target": "UniProt:O60674", "Class name": "yes (1)"}

Data request: hey, is inhibition for this one >= 60%? "Nc1n[nH]c2ccc(C(=O)N3CC[C@H]3c3ccc(F)cc3)cc12"
Data returned: no (0)

---

Procedure summary: Thermodynamic solubility of the compound in FaSSIF at pH 6.5
Format: physicochemical
Experimental setup: read-out: Therm_solubility
Value type: solubility thermodynamic (µg/mL)
Numbers only, in µg/mL.

Data request: solubility thermodynamic lookup needed for "Cc1n[nH]c2ncc(C(=O)N3CCC[C@H]3c3ccc(Cl)cc3)cc12" , thanks.
Data returned: 628

---

Study target: Cyclin-dependent kinase 8 (Homo sapiens, UniProt P49336)
Sequence (P49336 whole entry): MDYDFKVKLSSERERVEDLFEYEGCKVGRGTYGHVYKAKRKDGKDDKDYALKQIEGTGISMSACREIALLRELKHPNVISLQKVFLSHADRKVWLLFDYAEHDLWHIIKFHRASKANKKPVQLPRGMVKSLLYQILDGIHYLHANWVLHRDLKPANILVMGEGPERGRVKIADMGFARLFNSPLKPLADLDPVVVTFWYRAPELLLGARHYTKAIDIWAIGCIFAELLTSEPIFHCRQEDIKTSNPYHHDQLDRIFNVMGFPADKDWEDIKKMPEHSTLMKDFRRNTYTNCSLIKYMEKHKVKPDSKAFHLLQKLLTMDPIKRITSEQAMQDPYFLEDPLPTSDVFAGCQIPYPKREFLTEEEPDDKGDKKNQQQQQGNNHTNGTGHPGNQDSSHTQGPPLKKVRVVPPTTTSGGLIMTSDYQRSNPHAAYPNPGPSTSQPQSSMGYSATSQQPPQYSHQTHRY
Procedure summary: Inhibition of CDK8 in human SW620 cells assessed as decrease in STAT1 phosphorylation at Ser727
Format: cell-based, SW-620
Value type: IC50 (nM)
Numbers only, in nM.

Data request: IC50 lookup needed for "Cc1n[nH]c2ncc(C(=O)N3CCC[C@H]3c3ccc(Cl)cc3)cc12" , thanks.
Data returned: 8

---

Procedure summary: Fraction unbound in NMRI mouse plasma at 0.2 mg/kg, iv as bolus dose or 0.5 mg/kg, po via gavage measured over 6 hrs
Type: ADME, organism-based
Value type: fraction unbound at 6 h
One number for each entry.

Data request: fraction unbound at 6 h lookup needed for "Cc1n[nH]c2ncc(C(=O)N3CCC[C@H]3c3ccc(Cl)cc3)cc12" , thanks.
Data returned: 0.13

---

Can you tell me pIC50 for the items I'm about to list?
Study target: CDK8/Cyclin C (Homo sapiens, UniProt P49336)
Sequence (P49336 whole entry): as the sequence (P49336 whole entry) above
Sequence (P24863 whole entry, further chain): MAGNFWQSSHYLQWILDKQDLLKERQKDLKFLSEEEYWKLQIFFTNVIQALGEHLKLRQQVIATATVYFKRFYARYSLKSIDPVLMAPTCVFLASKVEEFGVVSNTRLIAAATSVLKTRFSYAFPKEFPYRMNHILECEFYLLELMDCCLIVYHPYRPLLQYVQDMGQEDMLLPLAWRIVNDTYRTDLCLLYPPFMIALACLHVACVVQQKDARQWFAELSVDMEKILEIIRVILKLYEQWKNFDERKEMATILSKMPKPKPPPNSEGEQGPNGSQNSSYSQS
Procedure summary: Inhibition of Alexa647 tracer binding to full length recombinant human His-tagged CDK8/cyclin C expressed in Baculovirus expression system preincubated for 20 mins followed by tracer addition and incubated in dark for 60 mins by FRET-based Lanthascreen assay
Numbers only, as −log10 of the molar value.

Quick batch: pIC50 for everything below.
1. Cc1n[nH]c2ccc(C(=O)N3CCOCC3c3ccc(Cl)cc3)cc12 (centres undefined)
2. Cc1n[nH]c2ccc(C(=O)N3CCC[C@H]3c3ccc(Cl)cc3)cc12
3. Nc1n[nH]c2ccc(C(=O)N3CCC[C@H]3c3ccc(Br)cc3)cc12
4. Nc1n[nH]c2ccc(C(=O)N3CCC[C@H]3c3ccc(F)cc3)cc12
5. Cc1n[nH]c2ccc(C(=O)N3CCC[C@H]3c3ccc(Cl)cc3)nc12
6. Cc1ncc2ccc(C(=O)N3CCC[C@H]3c3ccc(Cl)cc3)cn12

Data returned:
[8.07, 8.85, 8.51, 7.49, 8.89, 8.05]

Quick batch: pIC50 for everything below.
1. Nc1n[nH]c2ccc(C(=O)N3CC[C@H]3c3ccc(F)cc3)cc12
2. Nc1n[nH]c2ccc(C(=O)N3CCC[C@H]3c3ccc(Cl)cc3)cc12
3. Nc1n[nH]c2ccc(C(=O)N3CC[C@@H](c4ccc(Cl)cc4)C3)cc12
4. Cc1n[nH]c2ncc(C(=O)N3CCC[C@H]3c3ccc(Cl)cc3)cc12
5. Cc1ncc2sc(C(=O)N3CCC[C@@H]3c3ccc(Cl)cc3)nn12
6. CNc1n[nH]c2ccc(C(=O)N3CCC[C@H]3c3ccc(Cl)cc3)cc12

Data returned:
1: 7.31; 2: 8.31; 3: 7.62; 4: 8.59; 5: 6.96; 6: 8.27

Quick batch: pIC50 for everything below.
1. Cc1ncc2sc(C(=O)N3CCCC3c3ccccc3)nn12 (centres undefined)
2. Cc1nnc2ccc(C(=O)N3CCC[C@H]3c3ccc(Cl)cc3)cn12
3. Nc1n[nH]c2ccc(C(=O)N3CCCC[C@H]3c3ccc(F)cc3)cc12

Data returned:
1: 7.11; 2: 5.40; 3: 7.35

Quick batch: pIC50 for everything below.
1. CCOc1ccccc1CNC(=O)c1nn2c(C)ncc2s1
2. O=C(c1ccc2[nH]ncc2c1)N1CCC[C@H]1c1ccc(Cl)cc1
3. Cc1n[nH]c2ccc(C(=O)N3CCN(C)CC3c3ccc(Cl)cc3)cc12 (centres undefined)
4. Cc1n[nH]c2cnc(C(=O)N3CCC[C@H]3c3ccc(Cl)cc3)cc12
5. Cc1ncc2sc(C(=O)N3CCCC3c3ccc(F)cc3)nn12 (centres undefined)
6. Cc1n[nH]c2ccc(C(=O)N3CC[C@H]3c3ccc(Cl)cc3)cc12

Data returned:
6.89
7.49
7.82
7.96
7.22
8.77

---

Procedure summary: Volume of distribution at steady state in NMRI mouse at 0.2 mg/kg, iv as bolus dose or 0.5 mg/kg, po via gavage measured over 6 hrs
Format: ADME, organism-based
Experimental setup: in vivo, read-out: Vdss
Value type: Vd (L/kg)
Give bare numbers, in L/kg.

Data request: Vd lookup needed for "Cc1n[nH]c2ncc(C(=O)N3CCC[C@H]3c3ccc(Cl)cc3)cc12" , thanks.
Data returned: 0.59

---

Study target: Cyclin-dependent kinase 8 (Homo sapiens)
Procedure summary: Inhibition of CDK8 in human PA1 cells assessed as suppression of WNT3a ligand-induced WNT pathway by luciferase reporter gene assay
Type: cell-based, PA-1
Value type: IC50

Data request: IC50 lookup needed for "Cc1n[nH]c2ncc(C(=O)N3CCC[C@H]3c3ccc(Cl)cc3)cc12" , thanks.
Data returned: 52 nM

---

Procedure summary: Fraction unbound in Wistar rat plasma at 0.2 mg/kg, iv as bolus dose or 0.5 mg/kg, po via gavage measured over 6 hrs
Format: ADME, organism-based
Value type: fraction unbound at 6 h
One number for each entry.

Data request: fraction unbound at 6 h lookup needed for "Cc1n[nH]c2ncc(C(=O)N3CCC[C@H]3c3ccc(Cl)cc3)cc12" , thanks.
Data returned: 0.19

---

Study target: Tyrosine-protein kinase JAK1 (Homo sapiens, UniProt P23458)
Sequence (P23458 whole entry): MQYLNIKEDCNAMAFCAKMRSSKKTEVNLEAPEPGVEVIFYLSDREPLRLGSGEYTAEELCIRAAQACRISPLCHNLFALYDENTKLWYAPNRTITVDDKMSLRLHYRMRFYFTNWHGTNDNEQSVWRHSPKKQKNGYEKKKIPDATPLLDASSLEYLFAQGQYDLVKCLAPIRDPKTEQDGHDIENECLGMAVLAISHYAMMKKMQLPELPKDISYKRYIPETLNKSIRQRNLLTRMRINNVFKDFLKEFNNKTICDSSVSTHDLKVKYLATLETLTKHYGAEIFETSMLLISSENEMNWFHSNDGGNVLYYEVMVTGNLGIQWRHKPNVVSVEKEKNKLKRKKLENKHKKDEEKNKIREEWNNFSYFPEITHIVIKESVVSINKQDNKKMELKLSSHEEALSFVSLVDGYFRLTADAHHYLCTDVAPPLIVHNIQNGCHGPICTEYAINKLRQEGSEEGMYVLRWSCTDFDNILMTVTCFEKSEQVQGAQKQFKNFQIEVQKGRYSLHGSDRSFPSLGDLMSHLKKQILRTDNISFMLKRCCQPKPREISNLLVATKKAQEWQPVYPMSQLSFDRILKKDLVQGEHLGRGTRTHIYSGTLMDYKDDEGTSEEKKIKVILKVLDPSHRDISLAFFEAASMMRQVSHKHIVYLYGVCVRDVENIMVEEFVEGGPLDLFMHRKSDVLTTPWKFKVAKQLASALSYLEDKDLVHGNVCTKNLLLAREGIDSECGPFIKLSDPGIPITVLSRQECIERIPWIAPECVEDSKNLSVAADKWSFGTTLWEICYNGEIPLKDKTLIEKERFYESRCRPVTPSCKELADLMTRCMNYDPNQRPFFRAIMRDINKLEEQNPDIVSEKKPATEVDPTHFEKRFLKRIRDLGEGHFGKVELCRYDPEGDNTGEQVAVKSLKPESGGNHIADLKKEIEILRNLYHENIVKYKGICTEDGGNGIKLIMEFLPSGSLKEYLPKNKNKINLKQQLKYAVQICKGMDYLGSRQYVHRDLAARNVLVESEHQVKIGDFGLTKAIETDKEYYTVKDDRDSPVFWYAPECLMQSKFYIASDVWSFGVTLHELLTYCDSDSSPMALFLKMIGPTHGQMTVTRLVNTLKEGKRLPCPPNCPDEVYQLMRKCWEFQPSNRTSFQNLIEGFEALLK
Value type: IC50 (nM)
Give bare numbers, in nM.

Data request: IC50 lookup needed for "Nc1n[nH]c2ccc(C(=O)N3CCC[C@H]3c3ccc(Cl)cc3)cc12" , thanks.
Data returned: 90

---

Procedure summary: Apparent permeability from apical to basolateral side in human Caco2 cells at 1 uM after 2 hrs by Transwell assay
Format: ADME, cell-based
Experimental setup: Caco-2
Can you tell me Papp A→B at 2 h, 1 µM for the items I'm about to list?
Give bare numbers, in ×10⁻⁶ cm/s.

{"Structure notation": "Cc1n[nH]c2ncc(C(=O)N3CCC[C@H]3c3ccc(Cl)cc3)cc12", "Papp A→B at 2 h, 1 µM [×10⁻⁶ cm/s]": 44}

Data request: Papp A→B at 2 h, 1 µM lookup needed for "Nc1n[nH]c2ccc(C(=O)N3CCC[C@H]3c3ccc(Cl)cc3)cc12" , thanks.
Data returned: 33.7

---

Procedure summary: Plasma clearance in NMRI mouse at 0.2 mg/kg, iv as bolus dose or 0.5 mg/kg, po via gavage measured over 6 hrs
Format: ADME, organism-based
Value type: clearance (mL/min/kg)
Numbers only, in mL/min/kg.

Data request: clearance lookup needed for "Cc1n[nH]c2ncc(C(=O)N3CCC[C@H]3c3ccc(Cl)cc3)cc12" , thanks.
Data returned: 22.8

---

Study target: Non-receptor tyrosine-protein kinase TYK2 (Homo sapiens)
Sequence (P29597 whole entry): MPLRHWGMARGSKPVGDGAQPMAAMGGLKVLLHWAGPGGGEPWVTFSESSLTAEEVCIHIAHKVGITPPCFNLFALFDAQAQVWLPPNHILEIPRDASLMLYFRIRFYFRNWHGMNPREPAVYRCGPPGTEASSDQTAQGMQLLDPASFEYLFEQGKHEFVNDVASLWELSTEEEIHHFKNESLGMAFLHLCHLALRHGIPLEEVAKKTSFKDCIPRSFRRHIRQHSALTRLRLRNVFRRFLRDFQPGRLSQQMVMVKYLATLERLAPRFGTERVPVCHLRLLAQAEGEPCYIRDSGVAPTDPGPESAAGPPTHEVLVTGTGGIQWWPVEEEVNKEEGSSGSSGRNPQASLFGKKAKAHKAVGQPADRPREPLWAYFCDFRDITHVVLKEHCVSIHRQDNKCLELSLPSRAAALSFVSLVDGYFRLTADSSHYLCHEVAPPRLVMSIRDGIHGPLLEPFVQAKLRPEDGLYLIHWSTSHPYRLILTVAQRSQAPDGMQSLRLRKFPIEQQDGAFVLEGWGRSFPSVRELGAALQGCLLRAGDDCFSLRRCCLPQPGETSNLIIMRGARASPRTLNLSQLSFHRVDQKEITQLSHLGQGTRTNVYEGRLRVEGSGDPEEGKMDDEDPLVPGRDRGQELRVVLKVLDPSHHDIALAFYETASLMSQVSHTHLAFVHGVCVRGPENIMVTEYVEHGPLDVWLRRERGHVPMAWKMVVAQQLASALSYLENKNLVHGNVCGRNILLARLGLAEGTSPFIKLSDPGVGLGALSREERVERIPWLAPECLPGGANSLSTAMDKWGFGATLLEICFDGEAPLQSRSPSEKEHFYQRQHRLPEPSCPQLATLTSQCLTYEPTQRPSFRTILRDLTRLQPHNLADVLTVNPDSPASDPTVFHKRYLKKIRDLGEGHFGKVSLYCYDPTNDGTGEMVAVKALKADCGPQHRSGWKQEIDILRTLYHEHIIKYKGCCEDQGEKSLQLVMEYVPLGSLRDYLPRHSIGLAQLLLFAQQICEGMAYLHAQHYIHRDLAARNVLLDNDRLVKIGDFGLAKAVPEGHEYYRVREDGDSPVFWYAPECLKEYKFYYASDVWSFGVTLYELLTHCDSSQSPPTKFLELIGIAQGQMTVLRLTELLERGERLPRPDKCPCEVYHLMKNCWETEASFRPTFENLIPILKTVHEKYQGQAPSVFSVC
Procedure summary: Inhibition of TYK2 (unknown origin) at 1 uM relative to control
Lab note: compare inhibition against 60%. Equal or greater, write yes. Smaller, write no.

As a guide, the following entries are already answered.
{"Structure notation": "Nc1n[nH]c2ccc(C(=O)N3CCCC[C@H]3c3ccc(F)cc3)cc12", "Study target": "Non-receptor tyrosine-protein kinase TYK2 (Homo sapiens)", "Class name": "no"}
{"Structure notation": "Nc1n[nH]c2ccc(C(=O)N3CC[C@@H](c4ccc(Cl)cc4)C3)cc12", "Study target": "Non-receptor tyrosine-protein kinase TYK2 (Homo sapiens)", "Class name": "no"}
{"Structure notation": "Nc1n[nH]c2ccc(C(=O)N3CCC[C@H]3c3ccc(Cl)cc3)cc12", "Study target": "Non-receptor tyrosine-protein kinase TYK2 (Homo sapiens)", "Class name": "yes"}
{"Structure notation": "CNc1n[nH]c2ccc(C(=O)N3CCC[C@H]3c3ccc(Cl)cc3)cc12", "Study target": "Non-receptor tyrosine-protein kinase TYK2 (Homo sapiens)", "Class name": "no"}
{"Structure notation": "Nc1n[nH]c2ccc(C(=O)N3CCC[C@H]3c3ccc(F)cc3)cc12", "Study target": "Non-receptor tyrosine-protein kinase TYK2 (Homo sapiens)", "Class name": "yes"}
{"Structure notation": "Nc1n[nH]c2ccc(C(=O)N3CC[C@H]3c3ccc(F)cc3)cc12", "Study target": "Non-receptor tyrosine-protein kinase TYK2 (Homo sapiens)", "Class name": "no"}

In the following, a different molecule is considered.
Data request: hey, is inhibition for this one >= 60%? "Nc1n[nH]c2ccc(C(=O)N3CCC[C@H]3c3ccc(Br)cc3)cc12"
Data returned: yes

The values you see were collected from ChEMBL document CHEMBL3853318.
